# experimentalSystem: T1, monkey C5-mmh (monkey, UniProt P01031 19-1676 (human entry), limits assumed)
# T1 construct: Recombinant monkey C5 with a C-terminal myc-myc-hexahistidine tag
# T1 chain: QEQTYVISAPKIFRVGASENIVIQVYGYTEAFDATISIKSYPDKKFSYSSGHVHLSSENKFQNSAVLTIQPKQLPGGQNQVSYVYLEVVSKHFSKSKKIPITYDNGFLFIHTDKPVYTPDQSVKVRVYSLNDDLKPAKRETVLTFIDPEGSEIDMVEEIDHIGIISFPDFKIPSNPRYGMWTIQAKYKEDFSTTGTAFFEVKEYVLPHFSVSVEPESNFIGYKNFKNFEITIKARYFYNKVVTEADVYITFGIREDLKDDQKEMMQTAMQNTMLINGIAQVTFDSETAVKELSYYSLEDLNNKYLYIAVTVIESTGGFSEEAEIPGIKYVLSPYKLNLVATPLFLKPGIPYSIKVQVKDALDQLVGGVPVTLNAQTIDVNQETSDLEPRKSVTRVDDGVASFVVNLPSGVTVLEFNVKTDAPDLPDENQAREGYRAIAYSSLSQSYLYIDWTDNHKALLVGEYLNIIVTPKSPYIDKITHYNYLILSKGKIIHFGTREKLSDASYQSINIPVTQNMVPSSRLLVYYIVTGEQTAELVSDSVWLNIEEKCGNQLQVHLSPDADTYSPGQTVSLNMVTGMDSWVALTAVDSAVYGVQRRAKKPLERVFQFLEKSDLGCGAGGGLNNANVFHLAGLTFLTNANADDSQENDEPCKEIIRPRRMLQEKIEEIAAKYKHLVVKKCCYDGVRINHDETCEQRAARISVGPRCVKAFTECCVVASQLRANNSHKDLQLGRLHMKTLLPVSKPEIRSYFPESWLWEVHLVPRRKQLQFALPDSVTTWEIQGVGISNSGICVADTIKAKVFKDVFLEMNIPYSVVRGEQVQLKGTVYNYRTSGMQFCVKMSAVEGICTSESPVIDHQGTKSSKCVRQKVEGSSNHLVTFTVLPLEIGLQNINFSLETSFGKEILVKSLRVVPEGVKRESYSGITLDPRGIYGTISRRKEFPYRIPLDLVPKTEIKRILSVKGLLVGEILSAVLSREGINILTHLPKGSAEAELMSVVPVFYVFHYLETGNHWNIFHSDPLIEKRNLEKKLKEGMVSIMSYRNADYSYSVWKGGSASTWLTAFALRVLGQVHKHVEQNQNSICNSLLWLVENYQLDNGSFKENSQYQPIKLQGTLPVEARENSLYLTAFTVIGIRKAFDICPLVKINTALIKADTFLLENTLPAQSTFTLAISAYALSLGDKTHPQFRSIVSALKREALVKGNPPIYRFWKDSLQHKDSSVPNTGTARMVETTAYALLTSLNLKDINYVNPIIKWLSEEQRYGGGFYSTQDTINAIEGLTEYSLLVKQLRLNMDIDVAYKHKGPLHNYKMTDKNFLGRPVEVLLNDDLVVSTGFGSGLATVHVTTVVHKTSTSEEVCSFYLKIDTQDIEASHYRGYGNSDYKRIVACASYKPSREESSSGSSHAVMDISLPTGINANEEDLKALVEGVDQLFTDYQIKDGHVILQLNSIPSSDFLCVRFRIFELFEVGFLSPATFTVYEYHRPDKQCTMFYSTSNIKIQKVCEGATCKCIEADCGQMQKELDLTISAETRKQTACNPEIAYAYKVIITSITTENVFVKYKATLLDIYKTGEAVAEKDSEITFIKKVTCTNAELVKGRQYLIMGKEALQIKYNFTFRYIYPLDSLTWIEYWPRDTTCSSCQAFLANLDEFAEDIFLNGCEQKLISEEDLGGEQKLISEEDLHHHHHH
# methodSummary: SPR, mAb captured via anti-hFc, 37C
pKd: −log10 of the molar value.
Quick reference for pKd among some binders
measuredAttribute: pKd

>>> experimentalresult("H4H12169P (antibody, human IgG4, V domains shown, Human IgG4 Fc with S108P hinge mutation (H4H)) VH: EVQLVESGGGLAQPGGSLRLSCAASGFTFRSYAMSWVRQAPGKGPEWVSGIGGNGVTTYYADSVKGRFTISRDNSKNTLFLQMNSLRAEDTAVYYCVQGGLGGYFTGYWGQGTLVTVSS VL: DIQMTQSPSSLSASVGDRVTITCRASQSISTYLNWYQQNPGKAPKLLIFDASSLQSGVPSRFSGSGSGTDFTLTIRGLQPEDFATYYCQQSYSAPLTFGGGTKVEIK")
7.84
>>> experimentalresult("H4H11683N (antibody, V domains shown, also called H2M11683N) VH: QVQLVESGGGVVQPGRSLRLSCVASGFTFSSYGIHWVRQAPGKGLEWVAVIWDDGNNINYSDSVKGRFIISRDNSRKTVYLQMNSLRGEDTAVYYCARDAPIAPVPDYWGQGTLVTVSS VL: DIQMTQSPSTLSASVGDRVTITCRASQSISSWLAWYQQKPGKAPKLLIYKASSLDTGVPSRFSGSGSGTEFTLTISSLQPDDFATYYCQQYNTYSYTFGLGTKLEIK")
8.67
